Test: DUSP6 inhibitors restoring Erk phosphorylation by chemical complementation, primary imaging in DUSP6-transfected HeLa (AID 609)
Settings: HeLa MKP-3 transfected, phospho-Erk imaging KS statistic; measured here: cell density z-score; at 10 µM; cells stimulated with TPA for 15 min
Lab note: compare z-score against 0.1. Equal or greater, write Condition met. Smaller, write Condition not met.

| compound | qualitative_label |
| --- | --- |
| Cc1cc(C(F)(F)F)c(C#N)c(SCC(=O)NC2CC2)n1 | Condition met |
| COc1ccc(OC)c(C2NC(=O)c3sc(=S)n(-c4ccccc4)c3N2)c1 (stereo not drawn) | Condition not met |
| COCCOC(=O)C1=C(C)NC(C)=C(C(=O)OC(C)C)C1c1cccc([N+](=O)[O-])c1 (stereo not drawn) | Condition not met |
| O=C(O)c1ccccc1S | Condition met |
| Cc1ccc(-n2c(N)c(C(N)=O)sc2=S)cc1 | Condition not met |
| COc1ccc(C2/C(=C(/O)c3cnn(-c4ccccc4)c3C)C(=O)C(=O)N2CCN(C)C)cc1OC (stereo not drawn) | Condition not met |
| CCc1cc2c(=O)c(-c3cscn3)coc2c(CN(C)C)c1O | Condition met |
| COc1ccc2c(c1OC)C(=O)O[C@@H]2[C@H]1c2c(cc3c(c2OC)OCO3)CCN1C | Condition met |
| CCC1(c2ccccc2)C(=O)NCNC1=O | Condition not met |
| CC(C)C(=O)N1CCN(c2nc(-c3ccccc3)c3c(c2C#N)CCCC3)CC1 | Condition met |
| CC1(C)CN(O)CCN1O | Condition not met |
| CCOC(=O)c1ccc(NC(=O)Cn2nnc3ccccc32)cc1 | Condition met |
| O=CNC(=O)c1ccccc1C(=O)O | Condition met |
| CCCCOc1ccc(C)cc1CN(CCO)CCO | Condition not met |
| Cc1ccc(N(CN2C(=O)NC(C)(C)C2=O)CN2C(=O)NC(C)(C)C2=O)cc1 | Condition met |
| COc1cccc(-c2nc(N3CCC(C)CC3)c3ccccc3n2)c1O | Condition met |
| CCN1CCc2c(C#N)c(N3CCCCC3)nc(NCc3ccccc3)c2C1 | Condition met |
| CCCOc1cccc(C2/C(=C(/O)c3ccccc3)C(=O)C(=O)N2CCN(C)C)c1 (stereo not drawn) | Condition not met |
| CN1CCCN(C(c2ccccc2)c2ccc(Cl)cc2)CC1 (stereo not drawn) | Condition met |
| COC(=O)C1=C(C)N=C2SC(C)C(=O)N2C1c1cccs1 (stereo not drawn) | Condition met |
| OC(CCN1CCCCC1)(c1ccccc1)c1ccccc1 | Condition met |
| CC(NCCc1ccc(O)cc1)C(O)c1ccc(O)cc1 (stereo not drawn) | Condition met |
| CC1(C)Cc2c(c(-c3ccccc3)[nH]c(=O)c2C#N)CS1 | Condition met |
| Cc1nnc2n(Cc3ccccc3)c(=O)c3c4c(sc3n12)CN(Cc1ccccc1)CC4 | Condition not met |
| Cc1c(C=NCCOCc2ccccc2)cnn1C | Condition met |
| CCn1nc(NC(=O)c2cccnc2)c2cc3ccccc3nc21 | Condition not met |
| C=CCNC(=O)C(C#N)c1nc2ccccc2nc1N1CCCCCC1 (stereo not drawn) | Condition not met |
| COc1cccc(OC)c1-c1nn2c(-c3ccccc3Cl)nnc2s1 | Condition met |
| Cc1ccc2[nH]c3c(c2c1)CN(C(=O)CN1CCN(c2ccccn2)CC1)CC3 | Condition not met |
| CCC1(C)Cc2c(sc3c2c(=O)n(C)c2nnc(SCC(=O)c4ccc(Cl)cc4)n32)CO1 (stereo not drawn) | Condition not met |
| N#CC1=C(N)OC2=C(C(=O)CCC2)C1CCc1ccccc1 (stereo not drawn) | Condition met |
| CSc1nc2sc3c(c2c(=O)n1C1CCCCC1)CCN(C)C3 | Condition met |
| CCCCn1c(O)c(C=NCCCN(C)C)c(=O)[nH]c1=O | Condition met |
| C=CCOC(=O)C(C#N)c1nc2ccccc2nc1N1CCN(c2ccccc2OCC)CC1 (stereo not drawn) | Condition not met |
| CC1CNCCN1S(=O)(=O)c1cccc2cnccc12 (stereo not drawn) | Condition not met |
| COc1ccc(-c2nnc3sc(-c4c(OC)cccc4OC)nn23)cc1 | Condition not met |
| N#Cc1ccc(-c2ccco2)nc1SCC(=O)c1ccc(Cl)cc1 | Condition not met |
| CC(C)(C)NCC(=O)c1c[nH]c2ccccc12 | Condition not met |
| CCCc1cc(=O)oc2c(CN3CCN(C)CC3)c(O)c(Cl)cc12 | Condition met |
| CCOC(=O)c1ccc(N=CC2=C(O)CC(c3ccco3)CC2=O)cc1 (stereo not drawn) | Condition met |
| COc1cccc(-c2nnc3sc(-c4ccccc4)nn23)c1 | Condition not met |
| C[C@@H]1C[C@H]2[C@@H]3C[C@H](F)C4=CC(=O)C=C[C@]4(C)[C@@]3(F)[C@@H](O)C[C@]2(C)[C@@]1(O)C(=O)COC(=O)C(C)(C)C | Condition met |
| CC(=O)NS(=O)(=O)c1ccc(N)cc1 | Condition not met |
